- targetUnderTest: T1, human SIGLEC-9-ECD-Fc recombinant fusion protein (human, UniProt Q9Y336 18-343)
- T1 construct: The range starts at residue 1, so it includes the signal peptide; No cleavage site is stated; Secreted from CHOK1SV cells and purified on Protein A; also called Siglec-9-ECD-huFc; S9-ECD-Fc
- T1 sequence (Q9Y336 18-343): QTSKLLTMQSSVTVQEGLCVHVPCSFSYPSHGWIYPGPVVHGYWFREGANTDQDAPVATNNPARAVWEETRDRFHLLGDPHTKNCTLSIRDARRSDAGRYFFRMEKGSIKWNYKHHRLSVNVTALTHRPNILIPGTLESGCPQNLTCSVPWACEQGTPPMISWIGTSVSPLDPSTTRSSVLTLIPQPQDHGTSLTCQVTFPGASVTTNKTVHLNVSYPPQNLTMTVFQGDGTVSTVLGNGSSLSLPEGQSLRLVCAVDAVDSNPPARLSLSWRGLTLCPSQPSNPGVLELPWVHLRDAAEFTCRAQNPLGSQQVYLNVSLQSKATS
- protocolDescription: BLI (ForteBio Octet Red), SIGLEC-9-ECD-Fc on anti-human Fc sensors, Fab in solution, monovalent
Give measured koff for each item. Keep answers brief.
Express the result in s⁻¹ but write the number alone.

Prompt: Bench note: what koff did Tf84 Fab (Fab) chain 1: QVQLVQSGAEVKKPGASVKVSCKASDYTFTDYEMHWVRQAPGQGLEWMGAINPESGGTDYAQKFQGRVTMTADTSISTAYMELSRLRSDDTAVYYCTRVWLHWGQGTLVTVSS chain 2: DIVMTQSPDSLAVSLGERVTMNCKSSQSVLYSSNQKNYLAWYQQKPGQPPKMLIYWASTRESGVPDRFSGSGSGTDFTLTISSLQAEDVAVYYCHQYLSSNTFGQGTKLEIK show?
Response: 0.00295

Prompt: Repeat with Tf71 Fab (Fab) chain 1: QVQLVQSGAEVKKPGASVKVSCKASGYTFTDYEMHWVRQAPGQGLEWMGAIDPEAGGTDYAQKFQGRVTMTADTSISTAYMELSRLRSDDTAVYYCTRVWLHWGQGTLVTVSS chain 2: DIVMTQSPDSLAVSLGERVTMNCKSSQSVLYSSNQKNYLAWYQQKPGQPPKMLIYWASTRESGVPDRFSGSGSGTDFTLTISSLQAEDVAVYYCHQYLSSNTFGQGTKLEIK
Response: 0.000232

Prompt: Another: Tf73 Fab (Fab, V domains shown, also called AK643-3 / AK628-1) VH: QVQLVQSGAEVKKPGASVKVSCKASDYTFTGYEMHWVRQAPGQGLEWMGAIDPEAGGTDYAQKFQGRVTMTADTSISTAYMELSRLRSDDTAVYYCTRVWLHWGQGTLVTVSS VL: DIVMTQSPDSLAVSLGERVTMNCKSSQSVLYSSNQKNYLAWYQQKPGQPPKMLIYWASTRESGVPDRFSGSGSGTDFTLTISSLQAEDVAVYYCHQYLSSNTFGQGTKLEIK
Response: 0.000184

Prompt: Another binder to look at: Tf83 Fab (Fab) chain 1: QVQLVQSGAEVKKPGASVKVSCKASDYTFTDYEMHWVRQAPGQGLEWMGAINPEAGGTDYAQKFQGRVTMTADTSISTAYMELSRLRSDDTAVYYCTRVWLHWGQGTLVTVSS chain 2: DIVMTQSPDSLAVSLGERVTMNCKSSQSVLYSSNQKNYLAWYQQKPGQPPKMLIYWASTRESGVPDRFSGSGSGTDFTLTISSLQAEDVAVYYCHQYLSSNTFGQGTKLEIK
Response: 0.00297
